System Tested: Indoleamine 2,3-dioxygenase 1 (Homo sapiens)
Sequence (P14902 whole entry): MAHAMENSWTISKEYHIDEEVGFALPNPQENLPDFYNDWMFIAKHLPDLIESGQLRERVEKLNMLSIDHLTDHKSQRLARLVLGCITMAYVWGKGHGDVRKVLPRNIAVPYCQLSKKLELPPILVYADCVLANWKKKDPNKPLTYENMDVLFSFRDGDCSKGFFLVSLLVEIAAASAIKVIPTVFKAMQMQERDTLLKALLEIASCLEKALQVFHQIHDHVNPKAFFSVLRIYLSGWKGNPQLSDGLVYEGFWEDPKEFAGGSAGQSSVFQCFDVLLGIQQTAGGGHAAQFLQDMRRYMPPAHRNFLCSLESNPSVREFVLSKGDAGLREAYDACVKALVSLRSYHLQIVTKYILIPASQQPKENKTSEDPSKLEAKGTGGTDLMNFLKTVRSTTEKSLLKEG
Study Conditions: read-out: IC50
pIC50: −log10 of the molar value.
Reported Endpoint: pIC50

Sample records with pIC50:
Compound	System Tested	pIC50
SC1Nc2ccccc2S1 (centres undefined)	Indoleamine 2,3-dioxygenase 1 (Homo sapiens)	4.30
Oc1cccc2[nH]c3ccccc3c12	Indoleamine 2,3-dioxygenase 1 (Homo sapiens)	3.40
CC1=C/C(=N\C(C)C)c2ccccc2C1=O	Indoleamine 2,3-dioxygenase 1 (Homo sapiens)	6.70

P = Oc1ccc(NC2CCCCC2)c2ccccc12
Q = C[C@H](N)C(=O)Nc1ccc(O)c2ccccc12
R = O=C(c1ccccc1)c1cccc(O)c1
Output the entries ranked by pIC50 from maximum down to minimum. Respond with the label ranking, as requested. P, Q, R
(P: 4.82, Q: 4.22, R: 3.30)

P = CNc1ccc(O)c2ccccc12
Q = O=C(Nc1ccc(O)c2ccccc12)[C@@H]1CCCN1
Compare P and Q and name the one whose reported pIC50 is smaller. # respond with the chosen item's label Q
(Q: 3.70, P: 4.90)

P = CC(C)CNc1ccc(O)c2ccccc12
Q = CCN(CC)CCNc1ccc(O)c2ccccc12
Which one would you say has the larger pIC50 value: P , or Q ? # respond with the chosen item's label Q

---

System Tested: UniProt P28776
Sequence (P28776 whole entry): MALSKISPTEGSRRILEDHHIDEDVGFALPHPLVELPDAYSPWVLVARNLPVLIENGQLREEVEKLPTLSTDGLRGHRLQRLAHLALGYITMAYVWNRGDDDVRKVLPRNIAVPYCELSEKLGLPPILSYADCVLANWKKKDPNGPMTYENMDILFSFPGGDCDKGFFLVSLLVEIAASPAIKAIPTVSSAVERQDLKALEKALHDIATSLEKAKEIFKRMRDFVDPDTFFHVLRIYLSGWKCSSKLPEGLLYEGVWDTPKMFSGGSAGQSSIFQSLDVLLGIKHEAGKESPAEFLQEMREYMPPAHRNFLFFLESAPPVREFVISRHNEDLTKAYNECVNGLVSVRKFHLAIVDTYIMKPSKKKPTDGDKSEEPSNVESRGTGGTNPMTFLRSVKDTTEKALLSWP
Protocol Text: Inhibition of mouse recombinant IDO expressed in mouse P815B cells assessed as blockade of tryptophan degradation by HPLC
Type: cell-based
Study Conditions: read-out: IC50
Measured pIC50 by item
When answering, recall that pIC50 equals minus log10 of the concentration in mol/L, and write that number alone.

Sample records with pIC50:
Compound	pIC50
Nc1ccc(O)c2ncccc12	6.00
SC1Nc2ccccc2S1 (stereo not drawn)	4.70
Sc1nc(-c2ccccc2)cs1	4.70
c1ccc(-c2cnn[nH]2)cc1	5.30
CC1=C/C(=N\C(C)C)c2ccccc2C1=O	5.40

Give the reported value of pIC50 for this record: CC(C)Nc1ccc(O)c2ccccc12 4.52

---

Measured CC50 by item
Protocol Text: Cytotoxicity against HEK293 cells expressing human recombinant IDO by MTT assay
Type: cell-based
Study Conditions: human, HEK293 cells expressing human recombinant IDO; read-out: LD50 (the source's name)
Value expressed in µM; do not type the unit.

Sample records with CC50:
Entry Smiles	Reported Endpoint	Readout Number
CC(C)/N=C1/C=C(C2=C/C(=N\C(C)C)c3ccccc3C2=O)C(=O)c2ccccc21	CC50	50
CC1=C/C(=N\C(C)C)c2ccccc2C1=O	CC50	50
CCNc1ccc(O)c2ccccc12	CC50	200
CC(C)Nc1ccc(O)c2ccccc12	CC50	100

Here is another compound to look at.
Give the reported value of CC50 for this record: Oc1ccc(O)c2ccccc12 40

---

System Tested: Indoleamine 2,3-dioxygenase 1 (Homo sapiens)
Study Conditions: read-out: IC50
pIC50: −log10 of the molar value.
Reported Endpoint: pIC50

Sample records with pIC50:
Entry Smiles	pIC50
Nc1ccc(O)c2ccccc12	5.22
Oc1cccc2cccnc12	3.12
CC(C)Nc1ccc(O)c2ncccc12	4.82

P = NCCNc1ccc(O)c2ccccc12
Q = Oc1ccc(NCc2ccccc2)c2ccccc12
Compare P and Q and name the one whose reported pIC50 is smaller. # respond with the chosen item's label P
(P: 4.36, Q: 5.60)

---

Protocol Text: Cytotoxicity against mouse P815B cells expressing mouse recombinant TDO by MTT assay
Assay type: cell-based
Study Conditions: mouse, P815B cells expressing mouse recombinant TDO; read-out: LD50 (the source's name)
Reported Endpoint: CC50 (µM)
Value expressed in µM; do not type the unit.

Sample records with CC50:
Entry Smiles	Readout Number
CCC(CC)/N=C1/C=C(C2=C/C(=N\C(CC)CC)c3ccccc3C2=O)C(=O)c2ccccc21	100
CC(C)Nc1ccc(O)c2ccccc12	15
CC1=C/C(=N\C(C)C)c2ccccc2C1=O	10
Nc1ccc(O)c2ncccc12	5
CCNc1ccc(O)c2ccccc12	50

Give the reported value of CC50 for this record: Oc1ccc(O)c2ccccc12 10
